Target: T1, PVRIG (FACS-based competition assay of FIGS. 7 and 15) (Homo sapiens, UniProt Q6DKI7)
T1 construct: made because the format of the assay is only described in U.S. Ser. No. 15/048,967; also called human PVRIG
T1 sequence (receptor, looked up): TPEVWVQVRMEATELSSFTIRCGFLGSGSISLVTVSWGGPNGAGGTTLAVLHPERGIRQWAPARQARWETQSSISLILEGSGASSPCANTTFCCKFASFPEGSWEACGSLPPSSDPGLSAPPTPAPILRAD
Assay: FACS-based competition assay of PVRIG blocking; format and competitor not given
IC50 for assorted binders
PROPERTY_NAME: IC50 (nM)

1) CHA.7.549 (antibody, V domains shown) VH: QVQLQQPGTELVKPGASVKLSCKASGFTFTTHWMHWVRQRPGQGLEWIGNIYPSNGGSNYNEKFKTKATLTVDRSSSTAYMHLSSLTSEDSAVYYCARRVNWDGYYFDYWGQGTTLTVSS VL: DIVMTQSQKFMSTSVGDRVSVTCKASQNVGTNVAWYQQKPGQSPKLLIYSASYRYSGVPDRFTGSGSGTDFTLTISNVQSEDLADYFCQQYNSYPLTFGGGTKLEIK: 36.1
2) CHA.7.545 (antibody, V domains shown) VH: QIQLVQSGPDLKKPGETVKISCKASGYTFTTYGMSWVKQAPGRGLKWMGWINTYSGVSTFPDDFKGRFAFSLETSASTAYLQINNLKNEDSATYFCARLGMGSTTGAGYFDVWGTGTTVTVSS VL: DIVLTQSPAIMSASPGEKVTMTCSASSSVSSWYLHWYQQKSGASPKLWIYGTSNLASGVPARFSGSGSGTSYSLTISSVEAEDAATYYCQQYRSDPYTFGSGTKLEIK: 96.1
3) CHA.7.548 (antibody, V domains shown) VH: EVQLQQSGPELVKPGASVKISCKASGYTFTDYSMNWVKQSHGKSLEWIGDITPNNGSPNYNQKFKDKATLTVDKSSSTVYMELRSLTSEDSAVYYCASLFFDYWGHGTTLTVSS VL: DIVMTQSPSSLSVSAGEKVTMSCKSSQSLLNSGNQKNYLAWYQQKPGQPPKLLIYGASTRDSGVPDRFTGSGSGTDFTLTITSVQAEDLAVYYCQNDHTYPYTFGGGTKLEIK: 19
